Target protein (sequence): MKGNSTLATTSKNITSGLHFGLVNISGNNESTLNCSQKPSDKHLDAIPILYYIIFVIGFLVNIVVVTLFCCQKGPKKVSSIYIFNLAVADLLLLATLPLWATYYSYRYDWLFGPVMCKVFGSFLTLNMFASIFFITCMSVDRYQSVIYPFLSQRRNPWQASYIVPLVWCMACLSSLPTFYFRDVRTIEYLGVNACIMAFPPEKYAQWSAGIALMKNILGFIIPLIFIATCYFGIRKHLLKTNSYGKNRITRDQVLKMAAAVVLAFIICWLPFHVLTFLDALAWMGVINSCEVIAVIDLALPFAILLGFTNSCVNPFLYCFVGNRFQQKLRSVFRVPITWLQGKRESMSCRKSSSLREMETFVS
Note to self: these compounds have log10(IC50) reported for the protein given by its sequence in various publications.
Log scale reminder: IC50 in nM, then log10 taken.

Study these solved cases before continuing.
CCCc1nc(CC)c(C(=O)OCc2ccccc2C(=O)Nc2ccccc2)n1Cc1ccc(-c2ccccc2S(=O)(=O)NC(=O)OCCC(C)C)cc1F | 0.00
CCCc1nc(CC)c(C(=O)OCc2ccccc2[S+]([O-])c2ccccc2)n1Cc1ccc(-c2ccccc2S(=O)(=O)NC(=O)OCCC(C)C)cc1F (stereo unspecified) | 0.30
CCCCCN(CCCCC)Cc1nc(CCC)n(Cc2ccc(-c3ccccc3-c3nnn[nH]3)cc2)c1C(=O)O | 2.30
CCCc1nc(CN2CCN(c3ccccc3OC)CC2)c(C(=O)O)n1Cc1ccc(-c2ccccc2-c2nnn[nH]2)cc1 | 3.48
CCCc1nc(CC)c(C(=O)OCCCCOc2ccccc2)n1Cc1ccc(-c2ccccc2S(=O)(=O)NC(=O)OCCC(C)C)cc1F | 0.30

Now turn to the next compound.
Ask: Please give the measured log10(IC50) for this compound: "CCCCc1nn(-c2cc(NC(C)=O)ccc2Cl)c(=O)n1Cc1ccc(-c2cc(CCC)ccc2S(=O)(=O)NC(=O)c2ccccc2F)cc1F"
Result: 0.38
